- test-summary: isobaric coefficient of expansion
- test-context: 348.15 K; 30000 kPa; Liquid; DSC with Pressure Shift
Assign isobaric coefficient of expansion to each entry below.

Prompt: Report isobaric coefficient of expansion for CCCCCO [pentan-1-ol] please.
Response: 0.000871 1/K

Prompt: Please do the same for CCCCCCCCCCO [decan-1-ol] as well.
Response: 0.000775 1/K

Prompt: How about this compound: CCCCCCCCO [octan-1-ol]
Response: 0.0008 1/K

Prompt: Param item: CCCC(C)O (stereo not drawn) [pentan-2-ol]
Response: 0.00102 1/K

Prompt: Ok, now CCCO [propan-1-ol]
Response: 0.000984 1/K

Prompt: Next compound: CCCCCN [1-pentanamine]
Response: 0.00103 1/K

Prompt: Ok, now CCC(O)CC [3-pentanol]
Response: 0.00106 1/K

Prompt: Further, for CCCCCCCCCO [nonan-1-ol] ?
Response: 0.000787 1/K
